MEASUREMENT NOTES: qHTS assay to identify small molecule agonists of the peroxisome proliferator-activated receptor delta (PPARd) signaling pathway - cell viability counter screen (AID 743211); further: nearly all actives have a fitted effect of over 55% in size
ASSAY CONDITIONS: PPARd-bla HEK293H viability, CellTiter-Glo luminescence, 17 h; series mostly up to 62.6 µM
Records with an inconclusive call do not appear. The source made the active and inactive calls. The call rests on the fitted dose curve; in most records, active means well fitted cell-killing curve with a large enough effect in the repeat runs; inconclusive means weak or mixed curves; inactive means no such curve, though single readings can be large or run the other way.
Classes to choose from: active, inactive

Here are 10 compounds together with their reported answers.
CC(C)(c1ccccc1)c1ccccc1; inactive
CC1(C)S[C@@H]2[C@H](NC(=O)C(c3ccccc3)S(=O)(=O)O)C(=O)N2[C@H]1C(=O)O (stereo partly drawn); inactive
CN1CC(=O)N2[C@H](c3ccc4c(c3)OCO4)c3[nH]c4ccccc4c3C[C@@H]2C1=O; inactive
CC1=C(Br)C(=O)C(Br)=C/C1=C(/c1ccccc1S(=O)(=O)O)c1cc(Br)c(O)c(Br)c1C; inactive
Cc1cc(C)cc(N)c1; inactive
CC1(CN2CCC(n3c(=O)[nH]c4ccccc43)CC2)OCc2ccccc2-n2cccc21 (stereo not drawn); active
Cc1cccc(O)c1N; inactive
CC(C)=CCC1C(=O)N(c2ccccc2)N(c2ccccc2)C1=O; inactive
CN1CCCC(CC2c3ccccc3Sc3ccccc32)C1 (stereo not drawn); active
C[C@@H]1CN(CCCn2c3ccccc3c3ccccc32)C[C@H](C)N1; active

Per the records of this test, what outcome belongs to COc1ccccc1Oc1c(NS(=O)(=O)c2ccc(C(C)(C)C)cc2)nc(-c2ncccn2)nc1OCCO ?
inactive

Per the records of this test, what outcome belongs to O=C(/C=C/c1ccccc1)OCCc1ccccc1 ?
inactive

Per the records of this test, what outcome belongs to Clc1ccc(Nc2nnc(Cc3ccncc3)c3ccccc23)cc1 ?
inactive

Reference for the values: PubChem BioAssay (Tox21)
